# protocol notes: Metabolic stability in liver microsomes
# Type: in vitro ADME
# run conditions: dog; Beagle dogs liver microsomes
property measured: CLint scaled at 1 μM

| compound | data value |
| --- | --- |
| C[C@]1(NC(=O)C(=O)c2c(Cl)c(C(=O)Nc3ccc(F)c(F)c3)c3n2CCC3)CC[C@H](CC(=O)O)CC1 [Compound 18] | < 13.8 mL/min/kg |
| C[C@]1(NC(=O)C(=O)c2c(Cl)c(C(=O)Nc3cc(F)c(F)c(F)c3)c3n2CCC3)CC[C@H](CC(=O)O)CC1 [Compound 25] | < 13.8 mL/min/kg |

----------
# reported microsomal CLint at 1 μM; entries follow
# protocol notes: Metabolic stability in liver microsomes
# Assay type: in vitro ADME
# run conditions: Sprague-Dawley (SD), rat; SD rats liver microsomes; read-out: CLint(mic)
property measured: microsomal CLint at 1 μM

| compound | data value |
| --- | --- |
| C[C@]1(NC(=O)C(=O)c2c(Cl)c(C(=O)Nc3ccc(F)c(F)c3)c3n2CCC3)CC[C@H](CC(=O)O)CC1 [Compound 18] | < 9.6 µL/min/mg |
| C[C@]1(NC(=O)C(=O)c2c(Cl)c(C(=O)Nc3cc(F)c(F)c(F)c3)c3n2CCC3)CC[C@H](CC(=O)O)CC1 [Compound 25] | < 9.6 µL/min/mg |

----------
# protocol notes: Pharmacokinetic study in Balb/c mice by oral administration and intravenous injection
# Format: in vivo
# run conditions: mouse, plasma, 3 mg/kg; PO (3 mpk), Balb/c female mice; read-out: Peak time Tmax

| chemical smiles | Tmax, min |
| --- | --- |
| C[C@]1(NC(=O)C(=O)c2c(Cl)c(C(=O)Nc3cc(F)c(F)c(F)c3)c3n2CCC3)CC[C@H](CC(=O)O)CC1 | 30 |
| C[C@]1(NC(=O)C(=O)c2c(Cl)c(C(=O)Nc3ccc(F)c(F)c3)c3n2CCC3)CC[C@H](CC(=O)O)CC1 | 30 |

----------
# protocol notes: Metabolic stability in liver microsomes
# Format: in vitro ADME
# run conditions: dog; Beagle dogs liver microsomes; read-out: CLint(mic)

| chemical smiles | microsomal CLint at 1 μM |
| --- | --- |
| C[C@]1(NC(=O)C(=O)c2c(Cl)c(C(=O)Nc3ccc(F)c(F)c3)c3n2CCC3)CC[C@H](CC(=O)O)CC1 | < 9.6 µL/min/mg |
| C[C@]1(NC(=O)C(=O)c2c(Cl)c(C(=O)Nc3cc(F)c(F)c(F)c3)c3n2CCC3)CC[C@H](CC(=O)O)CC1 | < 9.6 µL/min/mg |

----------
# protocol notes: Experiment on cytotoxicity (CellTiter-Glo, 3 days)
# Type: cell-based
# run conditions: 3 days incubation, read-out: 50% cytotoxic concentration (CC50)

| chemical smiles | CC50 at 3 days |
| --- | --- |
| C[C@]1(NC(=O)C(=O)c2c(Cl)c(C(=O)Nc3cc(F)c(F)c(F)c3)c3n2CCC3)CC[C@H](CC(=O)O)CC1 | > 50 µM |
| C[C@]1(NC(=O)C(=O)c2c(Cl)c(C(=O)Nc3ccc(F)c(F)c3)c3n2CCC3)CC[C@H](CC(=O)O)CC1 | > 50 µM |

----------
# protocol notes: Metabolic stability in liver microsomes
# Type: in vitro ADME
# run conditions: Sprague-Dawley (SD), rat; SD rats liver microsomes, 1 μM compound, 0.5 mg/mL

| compound | half-life at 1 μM |
| --- | --- |
| C[C@]1(NC(=O)C(=O)c2c(Cl)c(C(=O)Nc3cc(F)c(F)c(F)c3)c3n2CCC3)CC[C@H](CC(=O)O)CC1 [Compound 25] | > 2.42 h |
| C[C@]1(NC(=O)C(=O)c2c(Cl)c(C(=O)Nc3ccc(F)c(F)c3)c3n2CCC3)CC[C@H](CC(=O)O)CC1 [Compound 18] | > 2.42 h |

Origin of values: patent US20220204510A1
